Please consider the recorded IC50 for PARP7 (Homo sapiens) in what follows.

>>> result("CNc1c(Oc2cccc(C(=O)N3CCN(c4ncc(C(F)(F)F)cn4)CC3)c2)n[nH]c(=O)c1C(C)=O")
"> 1 µM"
>>> result("O=C(c1cccc(Oc2n[nH]c(=O)c(C(F)(F)F)c2N2CC3CC3C2)c1)N1CCN(c2ncc(C(F)(F)F)cn2)CC1 (stereo not drawn)")
"< 0.1 µM"

Lab note: next molecule to report on.
Lookup: Entry O=C(CC1CN(c2cc(C(F)(F)F)c(=O)[nH]n2)c2ccccc2O1)N1CCN(c2ccc(C3CC3)cn2)CC1 (single isomer, unassigned) , system PARP7 (Homo sapiens): what IC50 was measured?
Found: < 0.1 µM

###

Protein target, amino acids: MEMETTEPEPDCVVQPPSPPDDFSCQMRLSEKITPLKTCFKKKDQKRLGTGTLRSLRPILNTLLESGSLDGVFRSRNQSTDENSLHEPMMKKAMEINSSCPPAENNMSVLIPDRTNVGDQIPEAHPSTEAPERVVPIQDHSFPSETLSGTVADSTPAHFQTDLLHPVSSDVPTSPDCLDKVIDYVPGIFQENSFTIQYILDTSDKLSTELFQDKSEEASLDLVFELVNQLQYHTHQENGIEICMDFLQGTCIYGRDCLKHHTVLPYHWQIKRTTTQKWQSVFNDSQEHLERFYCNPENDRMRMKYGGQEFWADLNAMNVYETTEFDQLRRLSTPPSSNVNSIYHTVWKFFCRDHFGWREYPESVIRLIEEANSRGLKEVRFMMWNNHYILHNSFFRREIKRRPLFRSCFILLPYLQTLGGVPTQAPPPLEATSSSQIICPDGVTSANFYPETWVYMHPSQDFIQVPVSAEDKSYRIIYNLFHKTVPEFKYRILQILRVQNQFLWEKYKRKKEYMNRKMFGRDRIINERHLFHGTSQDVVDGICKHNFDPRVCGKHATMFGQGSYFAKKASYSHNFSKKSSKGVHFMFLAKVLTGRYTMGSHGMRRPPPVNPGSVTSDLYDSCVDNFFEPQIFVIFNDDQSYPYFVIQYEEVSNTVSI
assay-endpoint: IC50

These solved cases illustrate the format of a correct answer.
>>> result("Cc1c(Oc2cc(C(=O)N3CCN(c4ncc(C(F)(F)F)cn4)CC3)ccc2C2CC2)n[nH]c(=O)c1C(F)(F)F")
"< 100 nM"
>>> result("N#Cc1ccc(N2CCN(C(=O)c3cccc(Oc4n[nH]c(=O)c(C(F)(F)F)c4N4CC5(CCC5)C4)c3)CC2)nc1")
"< 100 nM"

Turning now to a further molecule:
Lookup: Look up IC50: C#Cc1c(C)c(N2CCOC(CC(=O)N3CCN(c4ncc(C(F)(F)F)cn4)CC3)C2)n[nH]c1=O (single isomer, unassigned)
Found: 100 to 1000 nM

###

# assayed-target: PARP7 (Homo sapiens)
# Sequence (Q7Z3E1 1-657): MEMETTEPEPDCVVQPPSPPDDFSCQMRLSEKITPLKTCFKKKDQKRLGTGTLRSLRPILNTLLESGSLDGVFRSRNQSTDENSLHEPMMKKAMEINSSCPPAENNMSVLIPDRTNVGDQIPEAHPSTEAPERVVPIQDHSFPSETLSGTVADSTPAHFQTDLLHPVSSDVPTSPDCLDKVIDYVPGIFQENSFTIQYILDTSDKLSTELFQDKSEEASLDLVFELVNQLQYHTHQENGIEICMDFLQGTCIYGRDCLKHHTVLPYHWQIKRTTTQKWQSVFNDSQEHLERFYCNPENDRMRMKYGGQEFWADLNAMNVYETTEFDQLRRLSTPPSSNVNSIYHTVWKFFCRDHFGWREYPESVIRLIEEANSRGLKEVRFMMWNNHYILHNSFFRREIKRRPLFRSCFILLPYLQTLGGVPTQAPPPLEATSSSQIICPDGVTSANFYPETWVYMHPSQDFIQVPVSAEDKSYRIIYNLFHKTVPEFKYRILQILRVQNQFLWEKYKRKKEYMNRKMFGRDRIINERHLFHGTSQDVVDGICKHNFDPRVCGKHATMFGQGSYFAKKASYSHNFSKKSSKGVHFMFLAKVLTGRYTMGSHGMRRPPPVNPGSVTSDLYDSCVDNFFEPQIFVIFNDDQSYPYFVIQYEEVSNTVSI
pIC50: −log10 of the molar value.
assay-endpoint: pIC50

Reference set, count: 2
>>> result("O=C(c1cccc(Oc2n[nH]c(=O)c(C(F)(F)F)c2N2CC3(CCO3)C2)c1)N1CCN(c2ncc(C(F)(F)F)cn2)CC1")
"> 7.00"
>>> result("O=C(c1cccc(Oc2n[nH]c(=O)c(C(F)(F)F)c2N2CC3(CCC3)C2)c1)N1CCN(c2ccc(C3CC3)cn2)CC1")
"> 7.00"

Please turn your attention to the following entry.
Lookup: Fill in the blank: the reported pIC50 of O=C(CC1CN(c2cc(C(F)(F)F)c(=O)[nH]n2)c2ccccc2O1)N1CCN(c2ncc(C(F)F)cn2)CC1 (single isomer, unassigned) is ____.
Found: 6.00 to 7.00

Reference source for all entries: patent US20240343727A1
